- Test system: lymphocytic leukemia P388
- protocol-notes: Lymphocytic Leukemia P388 Test
- Type: in vivo, BDF1 mice
- details: dose 0.75 mg/kg intraperitoneally on days 1, 5 and 9; ratio of survival time treated/control
This section presents molecules with their documented T/C × 100 (%) values.
Response body: numeric value in %, unit text excluded.

Solved cases below.
[
  {
    "molecule": "N[C@@H](CC(=O)OCc1ccccc1)C(=O)NCCNc1ccc(NCCNC(=O)[C@@H](N)CC(=O)OCc2ccccc2)c2c1C(=O)c1c(O)ccc(O)c1C2=O.O=C(O)C(F)(F)F.O=C(O)C(F)(F)F (relative stereo)",
    "target-of-assay": "lymphocytic leukemia P388",
    "T/C × 100 (%)": 191
  },
  {
    "molecule": "C[C@H](NC(=O)[C@H](CO)NC(=O)[C@@H](N)CC(=O)OC(C)(C)C)C(=O)NCCNc1ccc(NCCNC(=O)[C@H](C)NC(=O)[C@H](CO)NC(=O)[C@@H](N)CC(=O)OC(C)(C)C)c2c1C(=O)c1c(O)ccc(O)c1C2=O",
    "target-of-assay": "lymphocytic leukemia P388",
    "T/C × 100 (%)": 150
  }
]

## Task Which T/C × 100 (%) is reported for this molecule? CC(C)(C)OC(=O)N[C@@H](CC(=O)OCc1ccccc1)C(=O)NCCNc1ccc(NCCNC(=O)[C@H](CC(=O)OCc2ccccc2)NC(=O)OC(C)(C)C)c2c1C(=O)c1c(O)ccc(O)c1C2=O (relative stereo)
## Result 127

## Task Which T/C × 100 (%) is reported for this molecule? CC(C)(C)OC(=O)CC[C@H](NC(=O)OCc1ccccc1)C(=O)NCCNc1ccc(NCCNC(=O)[C@H](CCC(=O)OC(C)(C)C)NC(=O)OCc2ccccc2)c2c1C(=O)c1c(O)ccc(O)c1C2=O (relative stereo)
## Result 136

## Task Which T/C × 100 (%) is reported for this molecule? Br.Br.N[C@@H](CS)C(=O)NCCNc1ccc(NCCNC(=O)[C@@H](N)CS)c2c1C(=O)c1c(O)ccc(O)c1C2=O (relative stereo)
## Result 210

====

- Tested on: lymphocytic leukemia P388
- protocol-notes: Lymphocytic Leukemia P388 Test
- Type: in vivo, BDF1 mice
- details: dose 0.75 mg/kg intraperitoneally on days 1, 5 and 9; BDF1 mice
- Protocol: The animals used were BDF1 mice, all of one sex, weighing a minimum of 18 g and all within a 3 g weight range. There were 5 or 6 mice per test group. The tumor transplant was by intraperitoneal injection of 0.5 ml of dilute ascitic fluid containing 10^6 cells of lymphocytic leukemia P388. […] The animals were weighed and survivors recorded on a regular basis for 60 days. The median survival time and the ratio of survival time for treated (T)/control (C) animals were calculated.
reported-endpoint: Median Survival (days)
Response body: numeric value in days, unit text excluded.

Solved cases below.
[
  {
    "compound": "N[C@@H](COCc1ccccc1)C(=O)NCCNc1ccc(NCCNC(=O)[C@@H](N)COCc2ccccc2)c2c1C(=O)c1c(O)ccc(O)c1C2=O.O=C(O)C(F)(F)F.O=C(O)C(F)(F)F (relative stereo)",
    "target-of-assay": "lymphocytic leukemia P388",
    "reported-endpoint": "Median Survival",
    "quantity-unit": "days",
    "quantitative-result": 19.5
  },
  {
    "compound": "Br.Br.NCC(=O)N[C@@H](Cc1ccccc1)C(=O)NCCNc1ccc(NCCNC(=O)[C@H](Cc2ccccc2)NC(=O)CN)c2c1C(=O)c1c(O)ccc(O)c1C2=O (relative stereo)",
    "target-of-assay": "lymphocytic leukemia P388",
    "reported-endpoint": "Median Survival",
    "quantity-unit": "days",
    "quantitative-result": 18.5
  },
  {
    "compound": "Br.Br.N=C(N)NCCC[C@H](N)C(=O)NCCNc1ccc(NCCNC(=O)[C@@H](N)CCCNC(=N)N)c2c1C(=O)c1c(O)ccc(O)c1C2=O",
    "target-of-assay": "lymphocytic leukemia P388",
    "reported-endpoint": "Median Survival",
    "quantity-unit": "days",
    "quantitative-result": 22.0
  },
  {
    "compound": "C[C@H](NC(=O)OC(C)(C)C)C(=O)N[C@@H](C)C(=O)N(CCNc1ccc(NCCN(C(=O)[C@H](C)NC(=O)[C@H](C)NC(=O)OC(C)(C)C)[C@@H](C)C(=O)O)c2c1C(=O)c1c(O)ccc(O)c1C2=O)[C@@H](C)C(=O)O",
    "target-of-assay": "lymphocytic leukemia P388",
    "reported-endpoint": "Median Survival",
    "quantity-unit": "days",
    "quantitative-result": 18.5
  }
]

Now turn to the next compound.
## Task Which Median Survival is reported for this compound? N[C@@H](CCC(=O)OCc1ccccc1)C(=O)NCCNc1ccc(NCCNC(=O)[C@@H](N)CCC(=O)OCc2ccccc2)c2c1C(=O)c1c(O)ccc(O)c1C2=O.O=C(O)C(F)(F)F.O=C(O)C(F)(F)F (relative stereo)
## Result 18.0
